test system: Mus musculus; experiment: Anticonvulsant activity in Mus musculus albino (mouse) assessed as protection against subcutaneous metrazole-induced seizure at 300 mg/kg, ip after 0.5 hr; type: functional, organism-based; design: dose 300 mg/kg
Calls of active or inactive are those of the source. The calls are words filed in the database; no cut-off is given here.

>  <inputSmiles>
Cc1ccc(-c2nnc(-n3c(-c4ccccc4)nc4ccccc4c3=O)o2)cc1

>  <Activity>
inactive

$$$$
>  <inputSmiles>
O=c1c2ccccc2nc(-c2ccccc2)n1-c1nnc(-c2ccc(Cl)cc2)o1

>  <Activity>
inactive

$$$$
>  <inputSmiles>
COc1ccc(-c2nnc(-n3c(-c4ccccc4)nc4ccccc4c3=O)o2)cc1

>  <Activity>
inactive

$$$$
>  <inputSmiles>
O=c1c2ccccc2nc(-c2ccccc2)n1-c1nnc(-c2ccccc2)o1

>  <Activity>
inactive

$$$$
>  <inputSmiles>
O=c1c2ccccc2nc(-c2ccccc2)n1-c1nnc(-c2ccc(F)cc2)o1

>  <Activity>
inactive

$$$$
>  <inputSmiles>
O=C1NC(=O)C(c2ccccc2)(c2ccccc2)N1

>  <Activity>
inactive

$$$$
>  <inputSmiles>
O=c1c2ccccc2nc(-c2ccccc2)n1-c1nnc(-c2ccc([N+](=O)[O-])cc2)o1

>  <Activity>
inactive

$$$$

###

test system: Mus musculus; assay: Neurotoxicity in ip dosed Mus musculus albino (mouse) assessed as minimal motor impairment after 4 hr by rotarod test; assay type: toxicity, organism-based; details: in vivo

>  <compound>
NC(=O)N1c2ccccc2C=Cc2ccccc21 [CARBAMAZEPINE]

>  <Activity (mg/kg)>
300

$$$$
>  <compound>
Cc1ccc(-c2nnc(-n3c(-c4ccccc4)nc4ccccc4c3=O)o2)cc1

>  <Activity (mg/kg)>
300

$$$$
>  <compound>
COc1ccc(-c2nnc(-n3c(-c4ccccc4)nc4ccccc4c3=O)o2)cc1

>  <Activity (mg/kg)>
300

$$$$
>  <compound>
O=C1NC(=O)C(c2ccccc2)(c2ccccc2)N1

>  <Activity (mg/kg)>
100

$$$$
>  <compound>
O=c1c2ccccc2nc(-c2ccccc2)n1-c1nnc(-c2ccc([N+](=O)[O-])cc2)o1

>  <Activity (mg/kg)>
300

$$$$

###

# Lookup of reported Activity keyed by entry
tested on: Mus musculus; assay: Neurotoxicity in ip dosed Mus musculus albino (mouse) assessed as minimal motor impairment after 0.5 hr by rotarod test; format: toxicity, organism-based; conditions: in vivo

>  <compound>
NC(=O)N1c2ccccc2C=Cc2ccccc21 [CARBAMAZEPINE]

>  <unitDescriptor>
mg/kg

>  <Activity>
100

$$$$
>  <compound>
COc1ccc(-c2nnc(-n3c(-c4ccccc4)nc4ccccc4c3=O)o2)cc1

>  <unitDescriptor>
mg/kg

>  <Activity>
300

$$$$
>  <compound>
O=c1c2ccccc2nc(-c2ccccc2)n1-c1nnc(-c2ccc([N+](=O)[O-])cc2)o1

>  <unitDescriptor>
mg/kg

>  <Activity>
300

$$$$
>  <compound>
O=c1c2ccccc2nc(-c2ccccc2)n1-c1nnc(-c2ccc(F)cc2)o1

>  <unitDescriptor>
mg/kg

>  <Activity>
300

$$$$
>  <compound>
O=C1NC(=O)C(c2ccccc2)(c2ccccc2)N1

>  <unitDescriptor>
mg/kg

>  <Activity>
100

$$$$
